assay: in vivo; parameters: species or system C57BL/6 mice; settings: C57BL/6, mouse, po, 100 mg/kg
quantityMeasured: Tmax (h)
Give your result in h as a bare value.

Input line: Find the measured Tmax of COc1ccc2c(c1)CCC1C2CC[C@@]2(C)C1CC[C@H]2NCc1cc2ccccc2cc1O (stereo partly shown) [1o] and report it.
Output line: 8.25

* * *

experiment: in vivo; set-up: species or system C57BL/6 mice; settings: C57BL/6, mouse, po, 100 mg/kg
quantityMeasured: bioavailability

Input line: State its bioavailability: COc1ccc2c(c1)CCC1C2CC[C@@]2(C)C1CC[C@H]2NCc1cc2ccccc2cc1O (stereo partly shown)
Output line: < 5%

* * *

system: HUVEC; assay: antiproliferative activity on HUVEC cells; type: cell-based; settings: Homo sapiens, HUVEC, 72 h
Mark each entry satisfied if its GI50 sits below 10 µM, and not satisfied for all others.

INSERT INTO results (compound, discretelabel) VALUES
  ('CC(C)CCC[C@@H](C)[C@H]1CCC2C3CCC4C[C@@H](O)[C@@H](O)[C@H](NCc5ccccc5O)[C@]4(C)C3CC[C@@]21C (stereo partly drawn) [12c]', 'not satisfied');

Now, please, on to the next compound.
Input line: I wonder whether COc1ccc2c(c1)CCC1C2CC[C@@]2(C)C1CC[C@H]2NCc1ccccc1O (stereo partly drawn) has GI50 below 10 µM. Can you tell?
Output line: not satisfied

* * *

test: in vivo; parameters: species or system C57BL/6 mice; details: C57BL/6, mouse, iv, 1 mg/kg
quantityMeasured: Vd (L/kg)
A number alone suffices; assume L/kg.

Input line: Read off the recorded Vd for COc1ccc2c(c1)CCC1C2CC[C@@]2(C)C1CC[C@H]2NCc1cc2ccccc2cc1O (stereo partly shown)
Output line: 6.4

* * *

assay: in vivo; design: species or system C57BL/6 mice; details: C57BL/6, mouse, iv, 1 mg/kg
quantityMeasured: AUC(0-t)
Just the number plus its unit, please.

Input line: Identify AUC(0-t) associated with the compound COc1ccc2c(c1)CCC1C2CC[C@@]2(C)C1CC[C@H]2NCc1cc2ccccc2cc1O (stereo partly shown)
Output line: 567 ng·h/mL

* * *

Experiment: hepatic microsome stability
Format: in vitro ADME
Details: human, liver microsomes, read-out: Hepatic Microsome Stability % remaining after 1 h
Experimental: Pharmacokinetic data were obtained for compound 1o at the Sanford-Burnham Medical Research Institute according to established procedures. Compound solubility in an aqueous solution was measured using an automated kinetic solubility method. The concentration of the compound in a saturated pH-buffered aqueous solution was determined via UV absorbance (250–498 nm) and compared with the spectra of a precipitation-free reference solution. […] The quantification was carried out via LC-MS/MS. […]
quantityMeasured: remaining at 1 h

Input line: Supply measured remaining at 1 h of COc1ccc2c(c1)CCC1C2CC[C@@]2(C)C1CC[C@H]2NCc1cc2ccccc2cc1O (stereo partly shown) in your reply.
Output line: 38.5%

* * *

test: plasma protein binding (rapid equilibrium dialysis); format: in vitro ADME; conditions: Mouse, 10 µM, read-out: Plasma Protein Binding % bound (converted)
quantityMeasured: fraction unbound at 10 µM
Please give only the number in your answer, with no unit.

Input line: Quote fraction unbound at 10 µM reported for COc1ccc2c(c1)CCC1C2CC[C@@]2(C)C1CC[C@H]2NCc1cc2ccccc2cc1O (stereo partly shown) please.
Output line: 0.0107

* * *

assay: plasma protein binding (rapid equilibrium dialysis); assay type: in vitro ADME; conditions: Human, 10 µM, read-out: Plasma Protein Binding % bound (converted)
quantityMeasured: fraction unbound at 10 µM
// response body must contain only the number

Input line: Please look at this molecule and report its fraction unbound at 10 µM: COc1ccc2c(c1)CCC1C2CC[C@@]2(C)C1CC[C@H]2NCc1cc2ccccc2cc1O (stereo partly shown) [1o]
Output line: 0.0094

* * *

experiment: aqueous kinetic solubility; type: physicochemical; details: pH-buffered aqueous solution, aqueous buffer, kinetic from dmso stock; across a range of pH; read-out: aqueous solubility
quantityMeasured: solubility

Input line: Report solubility, nothing else, for this compound: COc1ccc2c(c1)CCC1C2CC[C@@]2(C)C1CC[C@H]2NCc1cc2ccccc2cc1O (stereo partly shown) [1o]
Output line: < 1 µg/mL

* * *

system: P. falciparum (strain 3D7); assay: 72 h 3H-hypoxanthine incorporation assay, asexual blood stages; type: cell-based, Plasmodium falciparum; settings: Plasmodium falciparum, 3D7, 72 h 3H-hypoxanthine incorporation, asexual blood stages; read-out: Antiplasmodial activity IC50 Pf (3D7)
quantityMeasured: pIC50
# log scale: pIC50 equals minus log10 of the concentration in mol/L

INSERT INTO measurements (compound, recordednumber) VALUES
  ('COc1ccc2c(c1)CCC1C2CC[C@@]2(C)C1CC[C@H]2NCc1cc(Cl)ccc1O (some centres unmarked) [1s]', 7.96),
  ('COc1ccc2c(c1)CCC1C2CC[C@@]2(C)C1C[C@H](NCc1cc(C(C)(C)C)cc(C(C)(C)C)c1O)[C@H]2O (some centres unmarked) [6w]', 5.79),
  ('COc1ccc2c(c1)CCC1C2CC[C@@]2(C)C1C[C@@H](NCc1cc(Cl)ccc1O)[C@H]2O (some centres unmarked) [5s]', 7.00),
  ('COc1ccc2c(c1)CCC1C2CC[C@]2(C)C1C[C@H](NCc1ccccc1O)[C@@H]2O (some centres unmarked) [11c]', 6.85);

Input line: Check the records and state pIC50 for COc1ccc2c(c1)CCC1C2CC[C@@]2(C)C1CC[C@@H]2NCc1cc([N+](=O)[O-])ccc1O (some centres unmarked) [2u]
Output line: 6.94

* * *

tested on: P. falciparum (strain 3D7); experiment: 72 h 3H-hypoxanthine incorporation assay, asexual blood stages; assay type: cell-based, Plasmodium falciparum; conditions: Plasmodium falciparum, 3D7, 72 h 3H-hypoxanthine incorporation, asexual blood stages; read-out: Antiplasmodial activity IC50 Pf (3D7)
Property: pIC50; scope: individual compounds
Scale: pIC50 equals -log10([C]), with [C] in mol/L.

INSERT INTO assay_data (compound, recordednumber) VALUES
  ('COc1ccc2c(c1)CCC1C2CC[C@]2(C)C1C[C@@H](NCc1ccccc1O)[C@@H]2O (some centres unmarked) [10c]', 7.08),
  ('COc1ccc2c(c1)CCC1C2CCC2(C)C(NCc3ccc(O)cc3)CCC12 (centres unmarked) [1g]', 6.94),
  ('CC(C)CCC[C@@H](C)[C@H]1CCC2C3CCC4C[C@@H](O)[C@@H](O)[C@H](NCc5ccccc5O)[C@]4(C)C3CC[C@@]21C (some centres unmarked) [12c]', 5.36);

// next entry
Input line: Query pIC50 for COc1ccc2c(c1)CCC1C2CC[C@@]2(C)C1C[C@@H](NCc1ccccc1O)[C@@H]2O (some centres unmarked) [7c]
Output line: 6.92

* * *

tested on: P. falciparum NF54; assay: IC50 speed assay; type: cell-based, Plasmodium falciparum; settings: Plasmodium falciparum, NF54; 48 h compound incubation; mean±s.d., three biological replicates; read-out: IC50 48 h
quantityMeasured: IC50 (nM)
// units = nM; emit number, no label

Solved entries (count: 2):
INSERT INTO results (compound, quantitymeasured, unitslabel, recordednumber) VALUES
  ('COc1ccc2c(c1)CCC1C2CC[C@@]2(C)C1CC[C@H]2NCc1cc2ccccc2cc1O (stereo partly drawn)', 'IC50', 'nM', 3.4),
  ('C[C@H]1[C@H](OC(=O)CCC(=O)O)O[C@@H]2O[C@@]3(C)CC[C@H]4[C@H](C)CC[C@@H]1[C@@]24OO3 [Artesunate]', 'IC50', 'nM', 5.7);

Here's the next entry for you.
Input line: Tell me measured IC50 for CCc1nc(N)nc(N)c1-c1ccc(Cl)cc1 please.
Output line: 30.4

* * *

assay: in vivo; design: species or system C57BL/6 mice; details: C57BL/6, mouse, iv, 1 mg/kg
quantityMeasured: half-life

Input line: Tell us which half-life value is on record for COc1ccc2c(c1)CCC1C2CC[C@@]2(C)C1CC[C@H]2NCc1cc2ccccc2cc1O (stereo partly shown)
Output line: > 8 h

* * *

system: HeLa; test: cytotoxicity on HeLa cells; format: cell-based; conditions: 72 h
quantityMeasured: CC50 (µM)
All answers are understood in µM, so give the number only.

INSERT INTO results (compound, targetundertest, quantitymeasured, recordednumber) VALUES
  ('CC(C)CCCC(C)C1CCC2C3CCC4CC(O)C(NCc5ccccc5O)CC4(C)C3CCC12C (centres unmarked) [13c]', 'HeLa', 'CC50', 85.3);

Input line: Please supply the value of reported CC50 for the item CC(C)CCCC(C)C1CCC2C3CCC4CC(O)C(NCc5ccccc5O)CC4(C)C3CCC12C (centres unmarked) [14c]
Output line: 21.8

* * *

system: P. falciparum NF54; assay: IC50 speed assay; assay type: cell-based, Plasmodium falciparum; conditions: Plasmodium falciparum, NF54, 72 h, read-out: IC50 72 h
quantityMeasured: pIC50
Recall that pIC50 is obtained by taking minus log10 of the concentration measured in molar.

Input line: Kindly indicate its recorded pIC50. Item: CCN(CC)CCCC(C)Nc1ccnc2cc(Cl)ccc12 (stereo not shown) [chloroquine]
Output line: 8.13

Data credit: paper PMC5321741
